Target: Sodium/glucose cotransporter 2 (Homo sapiens)
Sequence (P31639 whole entry): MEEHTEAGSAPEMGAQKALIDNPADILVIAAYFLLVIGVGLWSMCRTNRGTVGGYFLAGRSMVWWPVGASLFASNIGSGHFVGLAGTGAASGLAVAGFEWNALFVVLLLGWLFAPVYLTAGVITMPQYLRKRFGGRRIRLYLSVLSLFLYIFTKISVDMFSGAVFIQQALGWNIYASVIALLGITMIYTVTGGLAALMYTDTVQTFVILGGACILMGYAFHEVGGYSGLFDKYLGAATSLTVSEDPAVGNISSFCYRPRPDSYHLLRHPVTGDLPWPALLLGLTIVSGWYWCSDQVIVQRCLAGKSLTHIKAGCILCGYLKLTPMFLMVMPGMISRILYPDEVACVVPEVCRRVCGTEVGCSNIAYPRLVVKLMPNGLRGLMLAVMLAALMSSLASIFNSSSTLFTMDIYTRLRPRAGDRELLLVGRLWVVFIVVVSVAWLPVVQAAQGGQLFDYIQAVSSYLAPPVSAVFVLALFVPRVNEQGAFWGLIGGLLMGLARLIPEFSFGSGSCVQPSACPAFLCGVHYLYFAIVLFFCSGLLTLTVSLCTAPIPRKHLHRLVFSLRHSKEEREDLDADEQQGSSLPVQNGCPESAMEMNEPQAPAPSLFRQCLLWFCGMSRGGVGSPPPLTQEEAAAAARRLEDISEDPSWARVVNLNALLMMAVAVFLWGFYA
Test: Inhibition of human SGLT2 expressed in CHO-K1 cells
Format: cell-based
parameter-measured: Ki (nM)
Use nM as the unit, but write only the number.

Task: Fill: Ki (Sodium/glucose cotransporter 2 (Homo sapiens)) for this compound CCOC(=O)OC[C@H]1O[C@@H](Oc2ccccc2Cc2ccc(OC)cc2)[C@H](O)[C@@H](O)[C@@H]1O [SERGLIFLOZIN ETABONATE]
Result: 151

All figures here come from ChEMBL document CHEMBL5126606.
